tested on: Musca domestica (houseflies - adults); experiment: Contact test on houseflies - adults (MD), Cotton wool/sugar, mortality; format: in vivo; settings: 72 h, 500 ppm, contact, 3 days, read-out: MD grading of mortality
Exercise: for every item that follows, state its recorded mortality at 500 ppm.

Sample CC1(c2ncc(C(C(=O)OCc3ccc(F)c(Oc4ccccc4)c3)C(C)(C)C)cn2)CC1 (racemic) [Compound 204] — what was its mortality at 500 ppm? 80 to 100%

Item under review: CCCc1c(F)c(F)c(COC(=O)C(c2cnc(C(C)(C)C)nc2)C(C)(C)C)c(F)c1F (racemic) [Compound 168] . Reported mortality at 500 ppm? < 50%

Which measured mortality at 500 ppm value corresponds to CC(C)(C)OC(=O)COCc1c(F)c(F)c(COC(=O)C(c2cnc(C(C)(C)C)nc2)C(C)(C)C)c(F)c1F (racemic) [Compound 165] ? < 50%

Name the reported mortality at 500 ppm value associated with the molecule C#CCc1c(F)c(F)c(COC(=O)C(c2cnc(C(C)(C)C)nc2)C2CC2)c(F)c1F (racemic) [Compound 91] 80 to 100%
